Readings of protein stability index for the listed variants
B1: APBB1IP (parent)
chain: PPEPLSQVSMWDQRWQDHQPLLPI

Variants of: B1
Assay: protein stability index of a GFP-peptide fusion (GPS, HEK-293T) (PSI 1-6); higher = more stable;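 also: lentivirally expressed fusions sorted by FACS into six bins by GFP to DsRed ratio, PSI derived from sequencing read proportions per bin multiplied by bin number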
Settings: c terminus: a fixed tail appended

Here is how some variants turned out for protein stability index.
P23C 3.48
Q19D 3.74
D17F 2.08
L22P 3.12

May I ask what protein stability index has been recorded for `P2L` ?
2.09

Record request: protein stability index value, item `L22S`
3.55
